Catalogue of compounds with associated growth inhibition
# EXPERIMENTAL_DETAILS: NCI Yeast Anticancer Drug Screen. Data for the CLN2oe strain (AID 163);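 also: 0% = growth of vehicle-only control cultures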
# EXPERIMENTAL_SETUP: S. cerevisiae CLN2oe strain, at 3.7 µM, hits give high values
This is part of a sample that, as a whole, favours compounds with a hit. Of some 79,000 tested, about 15% had one in any assay.
MEASUREMENT_LABEL: growth inhibition (%)

COMPOUND: C/C(=N/NC(=S)Nc1ccccc1C)c1ccccn1
OBSERVED_MEASUREMENT: -6

COMPOUND: N#CCC(=O)N/N=C(\c1ccccc1)C(c1ccccc1)C1(O)C(=O)Nc2c(Cl)ccc(Cl)c21 (stereo unspecified)
OBSERVED_MEASUREMENT: -2

COMPOUND: CC1(C)C(O)OC(O)C1(C)C (stereo unspecified)
OBSERVED_MEASUREMENT: -3

COMPOUND: O=[N+]([O-])[O][Sn]([O][Sn]([O][N+](=O)[O-])([c]1ccccc1)[c]1ccccc1)([c]1ccccc1)[c]1ccccc1
OBSERVED_MEASUREMENT: -48

COMPOUND: CCCCCCCN1C(=O)c2ccccc2C1=O
OBSERVED_MEASUREMENT: -2

COMPOUND: O=S1(=O)CCC2=CC(C(F)(F)F)=CC(C(F)(F)F)=CN21
OBSERVED_MEASUREMENT: 22

COMPOUND: O=C1CSC(c2ccccc2)N1c1ccc(-c2ccc(-n3c(-c4ccccc4)nc4ccccc4c3=O)cc2)cc1 (stereo unspecified)
OBSERVED_MEASUREMENT: 3

COMPOUND: COc1ccccc1NC(=O)c1ccc(Cl)cc1
OBSERVED_MEASUREMENT: 0

COMPOUND: O=C(Cc1ccccc1)NNc1nc(NNC(=O)c2ccncc2)nc(Nc2ccc(Cl)cc2)n1
OBSERVED_MEASUREMENT: -9

COMPOUND: OB(O)c1ccccc1C#Cc1ccccc1
OBSERVED_MEASUREMENT: 9

COMPOUND: S=C1N(c2ccc(Cl)cc2)C2=C(N=Nc3ccccc3)C(=Nc3ccccc3S2)N1c1ccccn1
OBSERVED_MEASUREMENT: -7

Each recorded value in this set is attributed to PubChem BioAssay (NCI).
